Reported koff is given for each of the following binders.
target: T1, Rhesus macaque CD4-HIS (Acro Biosystems, Cat. CD4-C52H7) (rhesus macaque, UniProt P16003 26-390); assay: BLI Octet, mAb on anti-mouse Fc sensor, rhesus CD4-HIS 25-100 nM, 1:1 global fit;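 also: purified antibodies captured at 10 µg/mL, rhesus CD4 analyte run as a three-concentration serial dilution, irrelevant antibody as reference control, one kinetic constant set per antibody from global fitting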
T1 construct: Bought reagent; also called Rhesus CD4; rhesus CD4-HIS; not shown: His tag
T1 sequence (P16003 26-390 limits assumed): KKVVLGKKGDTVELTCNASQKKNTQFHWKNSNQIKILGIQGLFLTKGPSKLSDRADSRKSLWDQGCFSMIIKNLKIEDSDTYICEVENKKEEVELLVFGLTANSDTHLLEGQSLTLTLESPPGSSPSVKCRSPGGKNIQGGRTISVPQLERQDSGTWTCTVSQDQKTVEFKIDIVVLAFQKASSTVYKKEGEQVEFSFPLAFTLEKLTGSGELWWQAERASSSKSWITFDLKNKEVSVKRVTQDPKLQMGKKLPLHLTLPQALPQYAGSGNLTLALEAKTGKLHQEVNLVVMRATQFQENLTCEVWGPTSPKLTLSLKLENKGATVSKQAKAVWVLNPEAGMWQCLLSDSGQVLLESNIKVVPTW

Binder	koff
75110_01D24A (antibody, V domains shown, Tested as antibody purified from AlivaMab Mouse hybridoma supernatant (captured by anti-mouse IgG Fc)) VH: QVQLQQWGAGLLKPSETLSLTCAVYGGSFSGYYWSWIRQPPGKGLEWIGEINHSGSTNYNPSLKSRVTISVDTSENQFSLKLNSVTAADTAVYYCARLVNWFDPWGQGTLVTVSS VL: EIQMTQSPSSVSASVGDRVTITCRASQDISNWLAWYQQKPGKAPNLLIFAASSLQTGVPSRFSGSGSGTDFTLTISSLQPDDFATYYCQQANSFPYSFGQGTNLGIK	0.064 s⁻¹
75110_02E08A (antibody, V domains shown, Tested as antibody purified from AlivaMab Mouse hybridoma supernatant (captured by anti-mouse IgG Fc)) VH: QVQLQESGPGLVKPSETLSLTCTVSGGSISTYYWTWIRQPAGKGLEWIGRVYTSGDTNYNPSLKSRVAMSLDTSKNQFSLKLSSVTAADTAVYYCARDSGALYSWNYGDAFDIWGQGTMVTVSS VL: DIQMTQSPSAMSASVGDRVTITCRASQDISNYLAWFQQKPGKVPKRLIYAASSLQSGVPSRFSGSGSGTEFTLTISSLQPEDFATYYCLQHNSYPRTFGQGTKVEIK	0.00091 s⁻¹
